Tested on: ATP;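 further: ATP exposure 15 min at 22 °C before imaging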
EXPERIMENTAL DETAILS: switch fluorescence ratio, 500 uM ATP over buffer (Cy3 cluster intensity, sum of 5 cycles each) (fold (ratio)); higher = stronger signal-on switching upon ATP binding; sequences stand for … in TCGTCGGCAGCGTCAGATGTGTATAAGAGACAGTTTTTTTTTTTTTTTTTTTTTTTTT…TC
RUN CONDITIONS: aptamer strand: ATP DNA aptamer (quencher-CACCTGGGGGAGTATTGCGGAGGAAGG + anchor), 100 nM annealed; ATP concentration: 500 uM
MEASUREMENT TYPE: switch fluorescence ratio
Number only, please.

Would you please look over these solved cases?
SEQ STRING: CGTTTAGCGT
switch fluorescence ratio: 1
--
SEQ STRING: CTTGGTTGCG
switch fluorescence ratio: 0.999
--
SEQ STRING: ATGGTAGCCG
switch fluorescence ratio: 0.981
--
SEQ STRING: GCCTGGACGA
switch fluorescence ratio: 1.04
--
SEQ STRING: CTACAAGTTA
switch fluorescence ratio: 1.05
--
SEQ STRING: ATACACATAG
switch fluorescence ratio: 1.04

Request: Could you please provide reported switch fluorescence ratio for ACCGGCGAGC ? Thanks!
Result: 1.01

Request: Could you please provide reported switch fluorescence ratio for GTCAGTGGCT ? Thanks!
Result: 0.998

Request: Could you please provide reported switch fluorescence ratio for AAAGTAATGG ? Thanks!
Result: 1.04

Request: Could you please provide reported switch fluorescence ratio for TTGGGTGTTT ? Thanks!
Result: 1.06
